Provide the reported growth of each item.
Tested on: HS 578T breast
Assay: NCI-60 one-dose screen, 48 h (100 = growth as untreated, 0 = no growth, -100 = all killed)
Details: 10 µM
The panel holds about 83,000 compounds, 20% with a hit somewhere; the sample as a whole holds those more often.
Answers are plain numbers, in %.

>  <molecule>
CCOP(=O)(OCC)C(NC(C)=O)C(=O)SCCN (stereo not drawn)

>  <growth (%)>
100

$$$$
>  <molecule>
CC12OOC(C)(OO1)C2CCC(=O)NCCCNc1ccnc2cc(Cl)ccc12 (stereo not drawn)

>  <growth (%)>
103

$$$$

Given item `Cc1ccc2[nH]c(=S)n(-c3ccc(F)cc3)c(=O)c2c1` , the value recorded as its growth is 104

---

System: MDA-MB-435 melanoma
Assay: NCI-60 one-dose screen, 48 h
Settings: 10 µM
This is part of a sample that, as a whole, favours compounds with a hit. Of some 83,000 tested, about 20% had one in any assay. Calls of active or inactive are those of the source. Rule for the calls: active = growth percent below 10; inactive = the rest.
Outcome field: choose from active, inactive

Below are worked cases with known answers.
>  <compound>
Cc1c2oc3c(C)ccc(C(=O)N[C@@H]4C(=O)N[C@H](C(C)C)C(=O)N5CCC[C@H]5C(=O)N(C)CC(=O)N(C)[C@@H](C(C)C)C(=O)OC4C)c3nc-2c(C(=O)N[C@@H]2C(=O)N[C@H](C(C)C)C(=O)N3CC(=O)C[C@H]3C(=O)N(C)CC(=O)N(C)[C@@H](C(C)C)C(=O)OC2C)c(N)c1=O (stereo partly specified)

>  <category.label>
active

$$$$
>  <compound>
COC(=O)c1ccc(-n2cc(CCCN(CCNc3ccnc4cc(Cl)ccc34)C(=O)CCC(=O)O[C@@H]3O[C@@H]4OC5(C)CC[C@H]6[C@H](C)CC[C@@H]([C@H]3C)[C@@]46OO5)nn2)cc1

>  <category.label>
inactive

$$$$
>  <compound>
COC(=O)C[C@](O)(CCC(C)C)C(=O)O[C@@H]1C(OC)=C[C@]23CCCN2CCc2cc4c(cc2[C@H]13)OCO4

>  <category.label>
active

$$$$
>  <compound>
CC(C)C[C@H](NC(=O)CNC(=O)C[C@H]1O[C@@H]2OC3(C)CC[C@H]4[C@H](C)CC[C@@H]([C@H]1C)[C@@]24OO3)B(O)O

>  <category.label>
active

$$$$
>  <compound>
CC[C@]12C=CCN3CC[C@@]4(c5ccc(OC)cc5N(C)[C@H]4[C@@](O)(C(=O)OC)[C@@H]1OC(=O)CCC[P+](C1CCCCC1)(C1CCCCC1)C1CCCCC1)[C@@H]32

>  <category.label>
active

$$$$

Continue with the next compound.
For CC12OOC(C)(OO1)C2CCC(=O)OCCNc1ccnc2cc(Cl)ccc12 (stereo unspecified) , what call appears in the results of this test?
inactive

---

Tested on: NCI-H522 lung
Test: NCI-60 one-dose screen, 48 h (100 = growth as untreated, 0 = no growth, -100 = all killed)
Conditions: 10 µM
This is part of a sample that, as a whole, favours compounds with a hit. Of some 83,000 tested, about 20% had one in any assay.
// assign 1.0 if growth falls strictly below -70%, else 0.0 (ties count as 0.0)

>  <compound>
CC12OOC(C)(OO1)C2CCC(=O)NCCCNc1ccnc2cc(Cl)ccc12 (stereo not given)

>  <category.label>
1.0

$$$$
>  <compound>
COc1cc(OC)c(/C=C/C(=O)c2nc3ccccc3n2Cc2ccc(F)cc2)c(OC)c1

>  <category.label>
0.0

$$$$
>  <compound>
CC(C)C[C@H](NC(=O)CNC(=O)C[C@H]1O[C@@H]2OC3(C)CC[C@H]4[C@H](C)CC[C@@H]([C@H]1C)[C@@]24OO3)B(O)O

>  <category.label>
1.0

$$$$

Continue with the next compound.
Does `C[C@H]1[C@H](OC(=O)CCC(=O)Nc2cnccn2)O[C@@H]2OC3(C)CC[C@H]4[C@H](C)CC[C@@H]1[C@@]24OO3` have growth strictly under -70%?
0.0
